tested on: FB; assay: Euclidean distance of Cell Painting phenotypic profile (signed KS, 77 features) to DMSO centroid (dimensionless distance); higher = stronger phenotypic change vs DMSO (phenoactivity); conditions: 48 h; 5 or 10 uM (library dependent)
Is Euclidean distance at least 1? Then criterion met. If not, criterion not met.

molecule	group_label
CC(=O)OC12COC1CC(O)C1(C)C(=O)C(O)C3=C(C)C(O)CC(O)(C(OC(=O)c4ccccc4)C21)C3(C)C (stereo not drawn)	criterion met
O=C(Oc1ccc([N+](=O)[O-])cc1)N1CCC(C(O)(c2ccc3c(c2)OCO3)c2ccc3c(c2)OCO3)CC1	criterion met
COc1ccc2[nH]cc(CCN)c2c1	criterion met
CC[N+](C)(CC)CCOC(=O)C(O)(c1ccccc1)c1ccccc1 [Methylbenactyzine Bromide]	criterion not met
O=[N+]([O-])/C=C/c1ccc2c(c1)OCO2	criterion met
COc1cc(C)[nH]c(=O)c1CNC(=O)c1c(C)n([C@H](C)C2CCN(CC(F)(F)F)CC2)c2ccccc12	criterion met
